Measurement record for tissue kallikrein (HK1) (Homo sapiens (Human)); quantity recorded: Ki.
Give a bare numeral; the unit nM is implied.

1) CCN(Cc1nccs1)C(=O)c1ccc2cc1CN(C)C(=O)[C@H](Nc1ccc3c(N)nccc3c1)c1ccc(c(C)c1)[C@@H](C)COC(=O)N2.O=C(O)C(F)(F)F :: 330
2) CCS(=O)(=O)c1ccc2cc1CNC(=O)[C@H](Nc1ccc3c(N)nccc3c1)c1cc(C)c(c(C)c1)CCOC(=O)N2 [Comparator 3, reference compound] :: 70

# value lookup — system tissue kallikrein (HK1) (Homo sapiens (Human)), readout Ki, item Cc1cc2ccc1[C@@H](C)COC(=O)Nc1cc(F)c(O[C@H]3CCOC3)c(c1)CN(C)C(=O)C2Nc1ccc2c(N)nccc2c1.O=C(O)C(F)(F)F (some centres unmarked)
100

Find the measured Ki: item "Cc1cc2ccc1[C@@H](C)COC(=O)Nc1cc(F)c(OCCN3CCCC3=O)c(c1)CN(C)C(=O)[C@@H]2Nc1ccc2c(N)nccc2c1.O=C(O)C(F)(F)F" , target or system tissue kallikrein (HK1) (Homo sapiens (Human)).
210

# get_value(readout= Ki, system= tissue kallikrein (HK1) (Homo sapiens (Human))) for "Cc1cc2ccc1[C@@H](C)COC(=O)Nc1cc(F)c(O[C@@H]3COC[C@@H]3O)c(c1)CN(C)C(=O)[C@@H]2Nc1ccc2c(N)nccc2c1.O=C(O)C(F)(F)F"
320

* * *

The following compounds have recorded Ki on tissue kallikrein (HK1) (Homo sapiens (Human)).
Kindly provide the numeric value in nM only, without the unit symbol.

Check out these entries, answers already filled in.
1. COc1cc2c(F)cc1[C@@H](C)COC(=O)Nc1ccc(S(=O)(=O)C3CC3)c(c1)CN(C)C(=O)[C@@H]2Nc1cc2ccnc(N)c2cc1F.O=C(O)C(F)(F)F [Example 25] :: 270
2. Cc1cc2ccc1[C@@H](C)COC(=O)Nc1cc(F)c(O[C@@H](C)CO)c(c1)CN(C)C(=O)[C@@H]2Nc1ccc2c(N)nccc2c1.O=C(O)C(F)(F)F [Example 33] :: 50
3. Cc1cc2ccc1[C@@H](C)COC(=O)Nc1cc(F)c(OCC3(C#N)CC3)c(c1)CN(C)C(=O)[C@@H]2Nc1ccc2c(N)nccc2c1.O=C(O)C(F)(F)F [Example 18] :: 490

Please look at the following compound next.
Given the entry CCS(=O)(=O)c1ccc2cc1CN(C)C(=O)[C@H](Nc1ccc3c(N)ncc(F)c3c1)c1ccc(c(C)c1)[C@@H](C)COC(=O)N2.O=C(O)C(F)(F)F [Example 3] , report its measured Ki.
270

* * *

Target: tissue kallikrein (HK1) (Homo sapiens (Human), UniProt P06870)
Sequence (P06870 25-262): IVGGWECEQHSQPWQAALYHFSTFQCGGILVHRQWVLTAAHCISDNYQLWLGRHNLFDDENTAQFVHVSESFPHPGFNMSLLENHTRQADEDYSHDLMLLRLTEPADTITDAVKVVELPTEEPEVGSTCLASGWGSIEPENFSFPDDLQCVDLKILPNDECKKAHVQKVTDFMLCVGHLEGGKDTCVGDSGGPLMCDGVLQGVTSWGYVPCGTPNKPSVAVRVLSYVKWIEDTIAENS
Binary call on Ki with cut-off 300 nM: strictly below means condition met, and equality or higher means condition not met.

1. Cc1cc2ccc1[C@@H](C)COC(=O)Nc1cc(F)c(O[C@H](C)CO)c(c1)CN(C)C(=O)[C@@H]2Nc1ccc2c(N)nccc2c1.O=C(O)C(F)(F)F :: condition met
2. Cc1cc2ccc1[C@@H](C)COC(=O)Nc1cc(F)c(O[C@@H]3CCOC3)c(c1)CN(C)C(=O)[C@@H]2Nc1ccc2c(N)nccc2c1.O=C(O)C(F)(F)F :: condition met
3. CCS(=O)(=O)c1ccc2cc1CNC(=O)[C@H](Nc1ccc3c(N)nccc3c1)c1ccc(cc1)CCOC(=O)N2 [Comparator 2, reference compound] :: condition met
4. Cc1cc2ccc1[C@@H](CF)COC(=O)Nc1ccc(S(=O)(=O)C3CC3)c(c1)CN(C)C(=O)[C@@H]2Nc1ccc2c(N)nccc2c1.O=C(O)C(F)(F)F :: condition met
5. COC[C@H](C)S(=O)(=O)c1ccc2cc1CN(C)C(=O)[C@H](Nc1ccc3c(N)ncc(F)c3c1)c1ccc(c(C)c1)[C@@H](C)COC(=O)N2.O=C(O)C(F)(F)F :: condition not met

Now look at this entry.
Record "Cc1cc2ccc1[C@@H](C)COC(=O)Nc1ccc(S(=O)(=O)C(C)C)c(c1)CN(C)C(=O)[C@@H]2Nc1ccc2c(N)ncc(F)c2c1.O=C(O)C(F)(F)F" : is its Ki strictly below 300 nM?
condition not met
